# % of … [SEQ ID NO: 124] Reaction Velocity at an Inhibitor Concentration of 100 µM annotations
- studyTarget: MAPKAP kinase II (MK2) (UniProt P49137 1-400, limits assumed)
- Sequence (P49137 whole entry): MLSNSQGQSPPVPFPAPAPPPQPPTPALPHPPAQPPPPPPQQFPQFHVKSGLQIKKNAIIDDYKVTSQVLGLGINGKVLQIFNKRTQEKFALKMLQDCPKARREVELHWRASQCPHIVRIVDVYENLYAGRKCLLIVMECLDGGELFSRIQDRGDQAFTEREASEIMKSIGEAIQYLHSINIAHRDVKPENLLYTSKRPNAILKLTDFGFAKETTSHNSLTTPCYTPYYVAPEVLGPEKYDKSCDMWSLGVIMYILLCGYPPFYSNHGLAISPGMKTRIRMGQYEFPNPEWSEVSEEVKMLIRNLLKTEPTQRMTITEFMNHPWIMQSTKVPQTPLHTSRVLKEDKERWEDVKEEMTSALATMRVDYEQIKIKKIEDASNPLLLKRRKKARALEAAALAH
- methodDescription: cell-based or functional assay
metric: % of … [SEQ ID NO: 124] Reaction Velocity at an Inhibitor Concentration of 100 µM

> print(dat)
                    binder  measvalue
1              KAANRQLGVAA       152%
2  WLKKIKAWLKKIKALNRQLGVVA       -32%
3              KALNRQLGAAA       373%
